target: IL-23 (human, p19/p40 heterodimer) (Homo sapiens, UniProt Q9NPF7;P29460 SEQ:20-189,SEQ:23-328); test: cell_activity; Pathscan pSTAT3, PHA blasts; conditions: tags: R&D Systems, carrier free
Sequence (Q9NPF7 20-189, chain 1 of 2): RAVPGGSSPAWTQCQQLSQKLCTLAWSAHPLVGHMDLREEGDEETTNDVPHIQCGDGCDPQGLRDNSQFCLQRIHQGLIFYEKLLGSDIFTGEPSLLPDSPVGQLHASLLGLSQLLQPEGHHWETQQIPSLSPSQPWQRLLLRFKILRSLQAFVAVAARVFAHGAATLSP
Sequence (P29460 23-328, chain 2 of 2): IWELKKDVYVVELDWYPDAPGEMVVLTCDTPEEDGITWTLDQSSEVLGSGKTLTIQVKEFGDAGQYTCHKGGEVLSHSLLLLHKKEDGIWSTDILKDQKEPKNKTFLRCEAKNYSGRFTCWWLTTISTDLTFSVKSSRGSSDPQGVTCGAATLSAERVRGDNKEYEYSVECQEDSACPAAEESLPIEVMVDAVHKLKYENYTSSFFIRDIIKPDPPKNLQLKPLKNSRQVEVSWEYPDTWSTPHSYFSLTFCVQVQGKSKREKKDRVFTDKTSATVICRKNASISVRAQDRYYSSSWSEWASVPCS
readout-kind: IC50 (nM)
Quick reminder: number only, in nM, skip the unit.

## Input # input binder: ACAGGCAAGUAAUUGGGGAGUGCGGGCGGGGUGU (mixed, 2'-OMe C,U and G16,G17,G24,G25,G30,G31; other A,G deoxy; PS 25-26,27-28,28-29; 3'-idT [2'-OMe C2,C6,U10,U13,U14,G16,G17,U21,C23,G24,G25,C27,G30,G31,U32,U34; other A,G deoxy; PS 25-26,27-28,28-29 (N = PS linkage, left out); 3'-inverted dT 35]) [ARC1624] ; wanted: its IC50
## Output 2

src = patent US20060193821
